- System Under Test: Ubiquitin-conjugating enzyme E2 N (Homo sapiens) (UniProt P61088)
- Sequence (P61088 whole entry, looked up): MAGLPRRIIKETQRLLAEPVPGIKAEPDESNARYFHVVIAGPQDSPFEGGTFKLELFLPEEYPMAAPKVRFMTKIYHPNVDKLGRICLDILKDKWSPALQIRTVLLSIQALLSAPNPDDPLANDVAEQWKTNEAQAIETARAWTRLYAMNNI
- Experimental Protocol: inhibition of Ubc13-driven ubiquitin chain assembly – biochemical, TR-FRET, Uev1a, selectivity assay, SAR follow-up (AID 2658)
- Experimental Conditions: Ubc13/Uev1a polyubiquitination, in vitro
Activity calls are given as the source filed them. The rule behind the calls is not given here.
Thanks in advance; please answer with one of these: class 1 (active), class 0 (inactive)

>  <Compound>
CC(=NOCc1nc2ccccc2c(=O)n1N=Cc1cc(C)cc([N+](=O)[O-])c1O)c1ccccc1

>  <Qualitative Label>
class 0

$$$$
>  <Compound>
Cc1ccsc1C=Nc1ccccc1O

>  <Qualitative Label>
class 0

$$$$

For O=C(O)c1ccc2c(c1)C1C=CCC1C(c1ccc(F)cc1)N2 (stereo unspecified) , what call appears in the results of this test? class 0

Any idea what this test logged for `O=C(COC(=O)c1cc(-c2ccco2)nc2ccccc12)NCc1ccc(F)cc1` ? class 1

====

- System Under Test: UniProt:P61088
- Experimental Protocol: inhibition of Ubc13-driven ubiquitin chain assembly – biochemical, TR-FRET, Uev1a, selectivity assay, SAR follow-up (AID 2658)
- Experimental Conditions: Ubc13/Uev1a polyubiquitination, in vitro
The source made the active and inactive calls. How the calls were made is not given here.
Reply using exactly one outcome from YES (active), NO (inactive)

>  <Compound>
CCN(CC)C(=O)COC(=O)c1cc(-c2ccco2)nc2ccccc12

>  <Qualitative Label>
NO

$$$$

Answer briefly: the call reported for `COc1ccc(CNC(=O)c2cc(-c3ccco3)nc3ccccc23)cc1` in this assay. NO

Kindly provide the recorded test outcome for the following compound: `COc1ccc(-n2c(NC(=O)c3ccc(Br)o3)c(C#N)c3nc4ccccc4nc32)cc1` NO

Dear colleague, could you share the recorded outcome for `O=C(N=Nc1c(O)n(Cc2ccccc2)c2ccccc12)c1cc2ccccc2cc1O` when you have a moment? NO

Outcome? CCOc1cc(C2c3c(oc4ccccc4c3=O)C(=O)N2c2nccs2)ccc1O (stereo not drawn) NO

What did the test return for COC(=O)c1ccc2c(c1)C1C=CCC1C(c1ccc(C(=O)O)cc1)N2 (stereo not drawn) ? NO

Could you please tell me the result logged for `C/C(=N\OCc1nc2ccccc2c(=O)n1/N=C/c1ccc(Cl)cc1)c1ccccc1` in this assay? NO

// return assay outcome for `O=C(COC(=O)c1cc(-c2ccco2)nc2ccccc12)NCc1ccccc1` NO

Give the logged outcome of this assay for the following compound: `Cc1cccc(Nc2cc3ccccc3c(=O)[nH]2)c1` NO

Look up the recorded call for `COc1ccc(CNC(=O)COC(=O)c2cc(-c3ccco3)nc3ccccc23)c(OC)c1` in this test. NO

Hi team, can someone confirm the assay call for `O=c1c2ccccc2nc(COc2ccccc2)n1N=Cc1cc([N+](=O)[O-])ccc1O` ? NO

Test call, this compound: `O=C(COC(=O)c1cc(-c2ccco2)nc2ccccc12)NC(=O)c1ccccc1` YES

====

- System Under Test: UniProt P61088
- Experimental Protocol: inhibition of Ubc13-driven ubiquitin chain assembly – biochemical, TR-FRET, Uev1a, selectivity assay, SAR follow-up (AID 2658)
- Experimental Conditions: Ubc13/Uev1a polyubiquitination, in vitro
The source made the active and inactive calls. How the calls were made is not given here.
Result category, one only: active, inactive

>  <Compound>
O=S(=O)(Nc1ccccc1F)c1ccc2c(c1)C1C=CCC1C(c1ccc(F)cc1)N2 (stereo not given)

>  <Qualitative Label>
inactive

$$$$
>  <Compound>
COc1ccccc1CNC(=O)CNC(=O)c1cc(-c2ccco2)nc2ccccc12

>  <Qualitative Label>
inactive

$$$$

How was `Cc1ccc(CNC(=O)COC(=O)c2cc(-c3ccco3)nc3ccccc23)cc1` classified in this test? active

// return assay outcome for CN(C(=O)COC(=O)c1cc(-c2ccco2)nc2ccccc12)C1CCS(=O)(=O)C1 (stereo not given) active

What call does the record list for `COc1ccccc1CNC(=O)COC(=O)c1cc(-c2cccs2)nc2ccccc12` ? active

Which result was noted for this compound in the test: `O=[N+]([O-])c1ccc2[nH]c(O)c(N=NC(=S)Nc3cccnc3)c2c1` inactive

Recorded test outcome, item Cc1ccc(C2Nc3ccc(C(=O)O)cc3C3C=CCC32)cc1 (stereo not given) inactive

====

- System Under Test: Ubiquitin-conjugating enzyme E2 N (Homo sapiens) (UniProt P61088)
- Experimental Protocol: inhibition of Ubc13-driven ubiquitin chain assembly – biochemical, TR-FRET, Uev1a, selectivity assay, SAR follow-up (AID 2658)
- Experimental Conditions: Ubc13/Uev1a polyubiquitination, in vitro
The source made the active and inactive calls. No rule for the calls is given here.
Please answer using one outcome listed in active, inactive

These solved cases illustrate the format of a correct answer.
>  <Compound>
COc1ccc(CNC(=O)COC(=O)c2cc(-c3ccc(C)o3)nc3ccccc23)cc1

>  <Qualitative Label>
active

$$$$
>  <Compound>
COc1ccccc1NC(=O)Cn1c(O)c(N=NC(=O)c2ccccc2O)c2ccccc21

>  <Qualitative Label>
inactive

$$$$
>  <Compound>
CCCCn1c(NC(=O)c2ccccc2Cl)c(C#N)c2nc3ccccc3nc21

>  <Qualitative Label>
inactive

$$$$
>  <Compound>
CN(Cc1ccc(F)cc1)C(=O)COC(=O)c1cc(-c2ccco2)nc2ccccc12

>  <Qualitative Label>
inactive

$$$$
>  <Compound>
CC(=O)NC1C(=O)N(CCN2CCOCC2)c2ccc(F)cc21 (stereo not given)

>  <Qualitative Label>
inactive

$$$$
>  <Compound>
NS(=O)(=O)c1ccc2c(c1)C1C=CCC1C(c1ccc([N+](=O)[O-])cc1)N2 (stereo not given)

>  <Qualitative Label>
inactive

$$$$
>  <Compound>
O=c1[nH]c(Nc2ccccc2)cc2ccccc12

>  <Qualitative Label>
inactive

$$$$
>  <Compound>
Cc1[nH][nH]c(=O)c1C(c1ccc(-c2ccc(F)cc2)o1)c1c(C)[nH][nH]c1=O

>  <Qualitative Label>
inactive

$$$$

Short answer needed: outcome of this test for `COc1ccccc1CCNC(=O)COC(=O)c1cc(-c2ccco2)nc2ccccc12` ? inactive

I'd appreciate the recorded outcome for `COc1ccc(CNC(=O)COC(=O)c2cc(-c3ccco3)nc3ccccc23)cc1OC` from this test. inactive

====

- System Under Test: Ubiquitin-conjugating enzyme E2 N (Homo sapiens)
- Experimental Protocol: inhibition of Ubc13-driven ubiquitin chain assembly – biochemical, TR-FRET, Uev1a, selectivity assay, SAR follow-up (AID 2658)
- Experimental Conditions: Ubc13/Uev1a polyubiquitination, in vitro
Calls of active or inactive are those of the source. The rule behind the calls is not given here.
Result Type: IC50

>  <Compound>
O=C1c2oc3ccccc3c(=O)c2C(c2ccc(O)cc2)N1c1nccs1 (stereo unspecified)

>  <Observed Value>
> 100 µM (inactive)

$$$$
>  <Compound>
O=C(NN=Cc1ccc(F)cc1)c1cc(-c2ccco2)nc2ccccc12

>  <Observed Value>
> 100 µM (inactive)

$$$$
>  <Compound>
Cc1[nH][nH]c(=O)c1C(c1ccc(-c2ccc(C(=O)O)cc2)o1)c1c(C)[nH][nH]c1=O

>  <Observed Value>
> 100 µM (inactive)

$$$$
>  <Compound>
COc1ccc(CCNC(=O)COC(=O)c2cc(-c3ccco3)nc3ccccc23)cc1

>  <Observed Value>
> 100 µM (inactive)

$$$$
>  <Compound>
Cc1c(Cl)cccc1NS(=O)(=O)c1ccc2c(c1)C1C=CCC1C(c1ccc(C(=O)O)cc1)N2 (stereo unspecified)

>  <Observed Value>
> 100 µM (inactive)

$$$$

Return IC50 (reported value) for this compound: `Cc1[nH][nH]c(=O)c1C(c1ccc(-c2cccc(C(=O)O)c2)o1)c1c(C)[nH][nH]c1=O` > 100 µM (inactive)

Answer with the recorded IC50 of `C=CCn1c(NC(=O)c2ccccc2Cl)c(C#N)c2nc3ccccc3nc21` only. > 100 µM (inactive)

====

- System Under Test: Ubiquitin-conjugating enzyme E2 N (Homo sapiens)
- Experimental Protocol: inhibition of Ubc13-driven ubiquitin chain assembly – biochemical, TR-FRET, Uev1a, selectivity assay, SAR follow-up (AID 2658)
- Experimental Conditions: Ubc13/Uev1a polyubiquitination, in vitro
Activity calls are given as the source filed them. How the calls were made is not given here.
Result Type: IC50

For orientation, consider the following solved cases.
>  <Molecule>
COc1ccc(CNC(=O)CCOC(=O)c2cc(-c3ccco3)nc3ccccc23)cc1

>  <Observed Value>
> 100 µM (inactive)

$$$$
>  <Molecule>
COc1ccc2c(c1)C(NC(C)=O)C(=O)N2CCN1CCOCC1 (centres undefined)

>  <Observed Value>
86.1 µM

$$$$
>  <Molecule>
CCCCn1c(NS(=O)(=O)c2ccccc2)c(S(=O)(=O)c2ccc(C)cc2)c2nc3ccccc3nc21

>  <Observed Value>
> 100 µM (inactive)

$$$$
>  <Molecule>
C/C(=N\OCc1nc2ccccc2c(=O)n1/N=C/c1ccccc1O)c1ccccc1

>  <Observed Value>
> 100 µM (inactive)

$$$$
>  <Molecule>
O=C(OCC(=O)N1CCc2ccccc2C1)c1cc(-c2ccco2)nc2ccccc12

>  <Observed Value>
> 100 µM (inactive)

$$$$
>  <Molecule>
O=C(OCC(=O)N1CCN(C(=O)c2ccco2)CC1)c1cc(-c2ccco2)nc2ccccc12

>  <Observed Value>
93.1 µM

$$$$
>  <Molecule>
N=C(N)c1ccc2cc(OC(=O)c3ccc(N=C(N)N)cc3)ccc2c1

>  <Observed Value>
14 µM

$$$$
>  <Molecule>
Cc1cccc2c(N=Nc3ccc(S(=O)(=O)Nc4cccc(Cl)c4)cc3[N+](=O)[O-])c(O)[nH]c12

>  <Observed Value>
> 100 µM (inactive)

$$$$

Now let's try a different one.
Identify the reported IC50 for the following entry. `COc1ccc(NC(=O)c2cc(-c3ccco3)nc3ccccc23)cc1S(=O)(=O)N1CCOCC1` 53.4 µM

Recorded values, source PubChem BioAssay AID2658.
